Entry source: paper PMC12598805

test system: human breast carcinoma (MCF‐7) cells; experiment: Cytotoxicity, CCK8 cell viability; format: cell-based; settings: MCF‐7, 24 h, 250 μM
measurement.type: decrease in cell viability (%)
Numbers only, in %.

| molecule | assay.value |
| --- | --- |
| O=c1[nH]cc(F)c(=O)[nH]1 [5‐FU, 5‐Fluorouracil, reference compound] | 50 |
| COc1ccc(/C=C(\C#N)c2cc(C(F)(F)F)cc(C(F)(F)F)c2)cc1 | 17 |
| COc1ccc(C=C(C#N)c2ccccc2)cc1 | 75 |

Consider the record given below.
For COc1ccc(/C=C(\C#N)c2ccc(F)cc2)cc1 the molecule record lists decrease in cell viability as 23

----------
Can you tell me IC50 at 24 h for the items I'm about to list?
Assay: Cytotoxicity on healthy cells, CCK8 cell viability
Format: cell-based, mouse
Details: mouse, L929 mouse fibroblast cells, L929, 24 h; read-out: Cytotoxic activity IC50
Excerpt: We investigated the cytotoxic effects of acrylonitrile derivatives 2(a–c) on human lung carcinoma (A549, CCL‐185) cells purchased from American Culture Collection and human breast carcinoma (MCF‐7) cells purchased from Republic of Turkey Ministry of Agriculture and Forestry Şap Institute, (HUKUK, 00092502), In addition, mouse fibroblast cells (L929, CCL‐1) purchased from American Culture Collection were used to observe the effects of the compounds on healthy cells. […]
Numbers only, in µM.

Past entries and their recorded results:
| molecule | IC50 at 24 h (µM) |
| --- | --- |
| O=c1[nH]cc(F)c(=O)[nH]1 [5‐FU, 5‐Fluorouracil, reference compound] | 109 |
| COc1ccc(C=C(C#N)c2ccccc2)cc1 | 351 |

Consider the record given below.
For COc1ccc(/C=C(\C#N)c2cc(C(F)(F)F)cc(C(F)(F)F)c2)cc1 the molecule record lists IC50 at 24 h as 410

----------
test system: human breast carcinoma (MCF‐7) cells; test: Cytotoxicity, CCK8 cell viability; type: cell-based; details: MCF‐7, 48 h, 31.25 μM
measurement.type: decrease in cell viability
Answer with the value and then the unit.

Past entries and their recorded results:
| compound | measurement.type | assay.value |
| --- | --- | --- |
| O=c1[nH]cc(F)c(=O)[nH]1 [5‐FU, 5‐Fluorouracil, reference compound] | decrease in cell viability | 46% |
| COc1ccc(/C=C(\C#N)c2ccc(F)cc2)cc1 [2b] | decrease in cell viability | 49% |
| COc1ccc(/C=C(\C#N)c2cc(C(F)(F)F)cc(C(F)(F)F)c2)cc1 [2c] | decrease in cell viability | 25% |

Consider the record given below.
For COc1ccc(C=C(C#N)c2ccccc2)cc1 [2a] the compound record lists decrease in cell viability as 44%

----------
Form: system (Micrococcus luteus (NRRL-B-1018)), quantity (MIC), values below.
Answers are plain numbers, in µg/mL.

Past entries and their recorded results:
| compound | assay.value |
| --- | --- |
| COc1ccc(/C=C(\C#N)c2cc(C(F)(F)F)cc(C(F)(F)F)c2)cc1 | 2500 |
| COc1ccc(/C=C(\C#N)c2ccc(F)cc2)cc1 | 12500 |
| CC1(C)S[C@@H]2[C@H](NC(=O)[C@H](N)c3ccccc3)C(=O)N2[C@H]1C(=O)O [Ampicillin, reference compound] | 31.2 |

Consider the record given below.
Form field, MIC with Micrococcus luteus (NRRL-B-1018), item COc1ccc(C=C(C#N)c2ccccc2)cc1 : 6250
